Data origin, for the record: the supplement of paper PMC9732359

Assay: protein stability index of a GFP-peptide fusion (yeast GPS) (PSI 1-4); higher = more stable; sorted into four equal gates, so the index is relative within each strain
Conditions: doa10∆
Reported protein stability index values for a set of sequences

Solved entries (count: 7):
>>> measured_value("SIHVNRVERSSRSTDNF [RRI1]")
3.32
>>> measured_value("FYQQVHKKDRLQYLPLY [SIR4]")
1.64
>>> measured_value("YCDKNFRENMSKEETVD [PRE3]")
3.02
>>> measured_value("SYVNYRHMALLVDVMTT [RPO21]")
1.23
>>> measured_value("KEDEPVVARRSNSANVS [ITC1]")
3.07
>>> measured_value("PMYKELWINYIKELLNI [POP4]")
1.67
>>> measured_value("RAQEEVKRIQSVPLVIG [RPT3]")
3.52

Next sequence, protein stability index to be filled in.
Record IKNLPADVSKLMYSITF [SRB2] . Reported protein stability index: 2.41
